# protocol text: Compound was evaluated for half life at 37 degree Centigrade
Please go through the items and note down their half-life.
Give bare numbers, in min.

Exercise: What value of half-life has been reported for the following compound? CCCCC[C@H](O)/C=C/C1OC2CC(O2)[C@@H]1C/C=C\CCCC(=O)O (some centres not stated)
Key: 0.5

We now examine a further compound.
Exercise: What value of half-life has been reported for the following compound? CCCCC[C@H](O)/C=C/[C@@H]1[C@H]2C/C(=C/CCCC(=O)O)O[C@H]2C[C@H]1O [EPOPROSTENOL]
Key: 3
